molecular target: T1, Insulin receptor prepared according to Bass et al., 1996: soluble human insulin receptor-immunoglobulin heavy … (human, UniProt P06213 28-956); assay: phage ELISA vs milk
T1 construct: extracellular domain; Eu3+-labelled in TR-FRET; also called IR; sIR-Fc; not shown: immunoglobulin heavy chain constant domains that replace the transmembrane and i
READOUT_KIND: Ratio over Background (fold)

binder="PPLASDLDVQFYGWFVQQVSPPGRGG [H2CA-2-B3-IGFR]" readout_unit=fold observed_value=1
binder="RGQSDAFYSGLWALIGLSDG [R20β-4-A6-IR]" readout_unit=fold observed_value=1.5
binder="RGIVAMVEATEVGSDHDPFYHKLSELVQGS [B6Hα-2-C7-IR]" readout_unit=fold observed_value=1
